Listing of recorded Top by entry.
system_tested: HDAC8 (Homo sapiens, UniProt Q9BY41)
Construct: HDAC8 (full length, C-terminal His tag, BPS Bioscience, cat. #: 50008); purchased BPS Bioscience 50008
Sequence (Q9BY41 1-377): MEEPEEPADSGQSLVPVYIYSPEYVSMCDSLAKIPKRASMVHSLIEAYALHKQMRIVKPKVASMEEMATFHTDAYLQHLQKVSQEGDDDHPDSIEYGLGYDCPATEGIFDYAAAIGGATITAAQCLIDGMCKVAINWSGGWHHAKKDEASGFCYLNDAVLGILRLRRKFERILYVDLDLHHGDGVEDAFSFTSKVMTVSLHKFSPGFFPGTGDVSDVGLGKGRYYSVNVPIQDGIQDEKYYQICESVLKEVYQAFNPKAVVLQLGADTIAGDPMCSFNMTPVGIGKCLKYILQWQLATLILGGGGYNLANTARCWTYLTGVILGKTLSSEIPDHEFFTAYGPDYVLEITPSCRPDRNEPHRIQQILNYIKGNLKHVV
protocol_notes: Recombinant HDAC µSPOT microarray binding assay;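 also: peptide µSPOT slides incubated with varying HDAC enzyme concentrations, imaged signal intensity fitted by four-parameter variable-slope regression, EC50 is enzyme concentration giving half-maximal binding, pH 7.4 HEPES buffer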;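 also: relative spot intensity from the six enzyme-concentration slides imaged together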
measurement_setup: HDAC8 µSPOT microarray dose-response fit, Top Value; X = Asuha; sheet Fig. 3 HDAC8
Output spec: single numeric token, no unit.

Observe how each entry below is paired with its result.
Which Top value is on record for H2B 91-106 (SREIQTAVRLLLPGEL; UniProt P62807 92-107, looked up, fragment) ?
0.09

Would you mind telling me what Top value was observed for H2A 100-115 (VTIAQGGVLPNIQAVL; UniProt P0C0S8 101-116, looked up, fragment) ?
7.44

Item H2A 46-61 (GAPVYLAAVLEYLTAE; UniProt P0C0S8 47-62, looked up, fragment) has what recorded Top?
21.03

Any idea what Top was measured for H2A 79-94 (IPRHLQLAIRNDEELN; UniProt P0C0S8 80-95, looked up, fragment) ?
0.12

Next:
# query: Top of entry H2A 37-52 (GNYSERVGAGAPVYLA; UniProt P04908 38-53, looked up, fragment)
0.07
